Tested on: Diabrotica balteata
PROTOCOL: Diabrotica balteata spray test
Type: in vivo
CONDITION_PARAMETERS: 168 h, application rate 160 μg/cavity (μg/well), wheat grains, after 7 days, read-out: efficacy
Protocol: Diabrotica balteata—Spray Test Solvent: • 78 parts by weight of acetone • 1.5 parts by weight of dimethylformamide Emulsifier: alkylaryl polyglycol ether To produce a suitable active compound preparation, 1 part by weight of active compound is dissolved using the stated parts by weight of solvent and made up with water containing an emulsifier concentration of 1000 ppm until the desired concentration is attained. […] After 7 days, the efficacy in % is determined. […]
RECORDED_ENDPOINT: pest or weed control at 160 µg/well (%)
Answer with a number only, understood to be in %.

Ask: I would be grateful if you could share the reported pest or weed control at 160 µg/well for CCS(=O)(=O)c1c(-c2nc3cc(C(F)(F)C(F)(F)F)cnc3n2C)ncc2cc(OCC(F)(F)F)ccc12 [Example I-048] .
Reply: 100

Ask: What does the data say about its pest or weed control at 160 µg/well? Entry: CCS(=O)(=O)c1c(-c2nc3cc(C(F)(F)C(F)(F)F)ncc3n2C)ncc2c(C#N)cccc12 [Example I-020]
Reply: 100

Ask: Recorded pest or weed control at 160 µg/well for CCS(=O)(=O)c1c(-c2nc3cc(C(F)(F)C(F)(F)F)cnc3n2C)ncc2c(Br)cccc12 [Example I-006] , please?
Reply: 100

Ask: Which pest or weed control at 160 µg/well is listed for CCS(=O)(=O)c1c(-c2nc3cc(C(F)(F)F)nnc3n2C)ncc2cc(Br)ccc12 [Example I-028] ?
Reply: 80

Ask: Name the reported pest or weed control at 160 µg/well value associated with the compound CCS(=O)(=O)c1c(-c2nc3cc(C(F)(F)C(F)(F)F)nnc3n2C)ncc2cc(C#N)ccc12 [Example I-051]
Reply: 100

Ask: Record request: pest or weed control at 160 µg/well value, item CCS(=O)(=O)c1c(-c2nc3cc(S(=O)(=O)C(F)(F)F)cnc3n2C)ncc2cc(Br)ccc12 [Example I-016]
Reply: 100

Ask: GET /values?readout=pest or weed control at 160 µg/well&item= CCS(=O)(=O)c1c(-c2nc3cc(C(F)(F)C(F)(F)F)cnc3n2C)ncc2cc(Br)ccc12 [Example I-005]
Reply: 80
